ASSAY_PROCEDURE: NCI Yeast Anticancer Drug Screen. Data for the CLN2oe strain (AID 163);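 note: 0% = growth of vehicle-only control cultures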
TEST_CONDITIONS: S. cerevisiae CLN2oe strain, at 100.0 µM
The panel holds about 79,000 compounds, 15% with a hit somewhere; the sample as a whole holds those more often. Active and inactive are the calls of the source. Cut-off read from the data, not from the text of the source: active = growth inhibition above about 70%; inactive = the rest.
Just give me one of these, please: 1 for active, 0 for inactive

Solved cases (5 shown):
INSERT INTO measurements (compound, group_label) VALUES
  ('CC[C@](O)(C(=O)O)c1cc2n(c(=O)c1CO)Cc1cc3ccccc3nc1-2', 1),
  ('CS(=O)(=O)OCCN(CCOS(C)(=O)=O)c1ccc(C=O)cc1', 0),
  ('[O-][n+]1c2cccc(O)c2[n+]([O-])c2cccc(O)c21', 0),
  ('O=C(NNC(=O)OCC(Cl)(Cl)Cl)OCC(Cl)(Cl)Cl', 0),
  ('Nc1ccccc1C(=O)OCCc1ccccc1', 1);

GET /call?item= C[C@]12CCC(=O)C=C1CC[C@@H]1C2CC[C@@]2(C)C1CC[C@@H]2OC(=O)C12OC1CCC2=O (stereo not given in full) returns the recorded outcome of this test. 1

Param item: `O=P(CCCCP(=O)(c1ccccc1)c1ccccc1)(c1ccccc1)c1ccccc1.[Cl][Sn]([Cl])([c]1ccccc1)[c]1ccccc1` 1

Please answer likewise for Cc1ccc2c(c1)C1(C)c3cc(C)ccc3SP1S2 (stereo not given) 0

Next: CCC1(O)C(=O)OCc2c1cc1n(c2=O)Cc2cc3cc(Cl)ccc3nc2-1 (stereo not given) 0

Param item: O=C1c2ccc3ccccc3c2CCC1N1CCCCC1 (stereo not given) 1
